method-description: chemical genetic growth profiling, strain panel (AID 1159580);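 also: tested at 20 µM; growth read once vehicle control cultures reached saturation at 30 °C; 1 = growth at the plate median or of vehicle wells; lower values mean less growth of the strain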
conditions-used: S. cerevisiae deletion strains, growth OD, locus YPL051W, strain arl3, hits give low values
Hit rate of the full screen: of about 5,500 compounds, about 2,000 (36%) were called active. Another 18% or so got no clear call; they are omitted. Some of the results follow.
measured-attribute: normalized growth
// no unit, no text: just the number

Inquiry: Report normalized growth, nothing else, for this compound: CC/C(=C(/CC)c1ccc(O)cc1)c1ccc(O)cc1
Reply text: 0.919

Inquiry: Report normalized growth, nothing else, for this compound: C[C@@H]1O[C@@H](OC[C@H]2OC(Oc3c(-c4ccc(OCCO)c(OCCO)c4)oc4cc(OCCO)cc(O)c4c3=O)[C@H](O)[C@@H](O)[C@@H]2O)[C@H](O)[C@H](O)[C@H]1O (some centres not stated)
Reply text: 0.956

Inquiry: Report normalized growth, nothing else, for this compound: O=c1ccc2cc(OC3OC(CO)C(O)C(O)C3O)c(O)cc2o1 (configuration not stated)
Reply text: 1.02

Inquiry: Report normalized growth, nothing else, for this compound: COc1cc(OC)c2c(=O)c(OC)c(-c3ccc(OC)c(OC)c3)oc2c1
Reply text: 0.993

Inquiry: Report normalized growth, nothing else, for this compound: C=C(C)[C@H]1COc2cc3oc(=O)ccc3cc2O1
Reply text: 0.232

Inquiry: Report normalized growth, nothing else, for this compound: O=C(OC1Cc2c(O)cc(O)cc2OC1c1cc(=O)c(O)c2c(O)c(O)cc(C3Oc4cc(O)cc(O)c4CC3O)c2c1)c1cc(O)c(O)c(O)c1 (configuration not stated)
Reply text: 0.827

Inquiry: Report normalized growth, nothing else, for this compound: CCC(N)C(O)c1ccc(O)c(O)c1 (configuration not stated)
Reply text: 0.983

Inquiry: Report normalized growth, nothing else, for this compound: CN(C)c1ccc2nc3ccc(=[N+](C)C)cc-3sc2c1
Reply text: 0.979

Inquiry: Report normalized growth, nothing else, for this compound: CCC(c1ccc(O)cc1)C(CC)c1ccc(O)cc1 (configuration not stated)
Reply text: 0.849

Inquiry: Report normalized growth, nothing else, for this compound: NS(=O)(=O)c1cc(C2(O)NC(=O)c3ccccc32)ccc1Cl (configuration not stated)
Reply text: 0.981

Inquiry: Report normalized growth, nothing else, for this compound: COc1cc(OC)c2c(=O)c(O)c(-c3ccc(OC)c(OC)c3)oc2c1
Reply text: 0.763

Inquiry: Report normalized growth, nothing else, for this compound: COc1ccc(-c2cc(=O)c3c(O)cc(O[C@H]4O[C@H](CO[C@@H]5O[C@@H](C)[C@H](O)[C@@H](O)[C@H]5O)[C@@H](O)[C@H](O)[C@H]4O)cc3o2)cc1
Reply text: 1.01

* * *

Give measured normalized growth for each item. Keep answers brief.
method-description: chemical genetic growth profiling, strain panel (AID 1159580);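 also: tested at 20 µM; growth read once vehicle control cultures reached saturation at 30 °C; 1 = growth at the plate median or of vehicle wells; lower values mean less growth of the strain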
conditions-used: S. cerevisiae deletion strains, growth OD, locus YGL240W, strain doc1, hits give low values
The campaign covered roughly 5,500 compounds. About 2,000 (36%) were called active. Not shown: some 18% with an inconclusive outcome. The list shows a part of the results.
// no unit, no text: just the number

Inquiry: Report normalized growth, nothing else, for this compound: COc1ccc(-c2oc3c(CC=C(C)C)c(O[C@@H]4O[C@H](CO)[C@@H](O)[C@H](O)[C@H]4O)cc(O)c3c(=O)c2O[C@@H]2O[C@@H](C)[C@H](O)[C@@H](O)[C@H]2O)cc1
Reply text: 1.04

Inquiry: Report normalized growth, nothing else, for this compound: COc1cc(OC)c2c(=O)c(O)c(-c3ccc(OC)c(OC)c3)oc2c1
Reply text: 0.993

Inquiry: Report normalized growth, nothing else, for this compound: C[C@@H]1O[C@@H](OC[C@H]2OC(Oc3c(-c4ccc(OCCO)c(OCCO)c4)oc4cc(OCCO)cc(O)c4c3=O)[C@H](O)[C@@H](O)[C@@H]2O)[C@H](O)[C@H](O)[C@H]1O (some centres not stated)
Reply text: 0.958

Inquiry: Report normalized growth, nothing else, for this compound: O=C(Cc1cccs1)NC1C(=O)N2C(C(=O)[O-])=C(C[n+]3ccccc3)CSC12 (configuration not stated)
Reply text: 0.956

Inquiry: Report normalized growth, nothing else, for this compound: N#Cc1nn(-c2c(Cl)cc(C(F)(F)F)cc2Cl)c(N)c1S(=O)C(F)(F)F (configuration not stated)
Reply text: 0.959

Inquiry: Report normalized growth, nothing else, for this compound: COc1cc(OC)c2c(=O)c(OC)c(-c3ccc(OC)c(OC)c3)oc2c1
Reply text: 1.03

Inquiry: Report normalized growth, nothing else, for this compound: C[C@]12C=CC(=O)C=C1CCC1C2[C@@H](O)C[C@@]2(C)C1CC[C@]2(O)C(=O)COP(=O)(O)O (some centres not stated)
Reply text: 0.996

* * *

method-description: chemical genetic growth profiling, strain panel (AID 1159580);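 also: tested at 20 µM; growth read once vehicle control cultures reached saturation at 30 °C; 1 = growth at the plate median or of vehicle wells; lower values mean less growth of the strain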
conditions-used: S. cerevisiae deletion strains, growth OD, locus YPL241C, strain CIN2
Out of some 5,500 compounds screened, about 2,000 (36%) were called active. Not shown: some 18% with an inconclusive outcome. Cut-off read from the data, not from the text of the source: active = normalized growth mostly below about 0.91 (no sharp cut-off); inconclusive = no clear call, values can overlap the other calls; inactive = mostly above about 0.92. The list shows a part of the results.
Parameter call: string, one of active, inactive

Inquiry: So what was the verdict on O=[N+]([O-])c1ccc(OCCCOc2ccc([N+](=O)[O-])cc2)cc1 in this test?
Reply text: inactive

Inquiry: So what was the verdict on CN1CC(C(=O)NC2(C)OC3(O)C4CCCN4C(=O)C(Cc4ccccc4)N3C2=O)CC2c3cccc4[nH]cc(c34)CC21 (configuration not stated) in this test?
Reply text: inactive

Inquiry: So what was the verdict on COc1cc(/C=C(\C#N)C(N)=S)cc(OC)c1OC in this test?
Reply text: active

Inquiry: So what was the verdict on OCC(O)C(O)C(O)C(O)C(O)CO (configuration not stated) in this test?
Reply text: inactive

Inquiry: So what was the verdict on NS(=O)(=O)c1cc(C2(O)NC(=O)c3ccccc32)ccc1Cl (configuration not stated) in this test?
Reply text: inactive

Inquiry: So what was the verdict on CCc1cccc(CC)c1N(COC)C(=O)CCl in this test?
Reply text: inactive

Inquiry: So what was the verdict on CC(C)c1c(O)ccc2c1CCC1C(C)(C)CCC[C@]21C (some centres not stated) in this test?
Reply text: active

Inquiry: So what was the verdict on COc1cc2c(cc1OC)[C@@H](c1ccccc1)CN(C)CC2 in this test?
Reply text: inactive

Inquiry: So what was the verdict on CSc1nc(N)c2ncn([C@@H]3O[C@H](COP(=O)(O)OP(=O)(O)OP(=O)(O)O)[C@H](O)C3O)c2n1 (some centres not stated) in this test?
Reply text: inactive

Inquiry: So what was the verdict on N#C/C(=C\c1ccc(O)c(O)c1)C(=O)NCCCNC(=O)/C(C#N)=C/c1ccc(O)c(O)c1 in this test?
Reply text: inactive

Inquiry: So what was the verdict on O=[N+]([O-])c1ccc(Oc2cccc3cccnc23)cc1 in this test?
Reply text: active

Inquiry: So what was the verdict on CCCCCc1c2c(cc(O)c1C(=O)O)OC(=O)c1c(cc(OC)cc1C(=O)CCCC)O2 in this test?
Reply text: inactive

Inquiry: So what was the verdict on N#C/C(=C\c1ccc(O)c(O)c1)C(=O)NCc1ccccc1 in this test?
Reply text: inactive

Inquiry: So what was the verdict on CC(=O)OC(C)C[N+](C)(C)C (configuration not stated) in this test?
Reply text: inactive

Inquiry: So what was the verdict on CC1CCC2(OC1)OC1CC3C4CC[C@H]5C[C@@H](O)CC[C@]5(C)C4CC(=O)[C@]3(C)C1C2C (some centres not stated) in this test?
Reply text: inactive

Inquiry: So what was the verdict on CCN1C[C@]2(C)CC[C@H](OC)[C@]34C2[C@H](O)[C@]2(OCO[C@@]25C[C@H](OC)[C@H]2C[C@]3(O)C5[C@H]2O)C14 in this test?
Reply text: inactive

Inquiry: So what was the verdict on C/C(=N/NC(=S)Nc1ccc(C(C)C)cc1)c1ccco1 in this test?
Reply text: active

Inquiry: So what was the verdict on COC(=O)C1OC(=O)C2OC23C1(C)CCC1C2(C)C(OC(C)=O)CC(OC(C)=O)C(C)(C)C2CC(=O)C13C (configuration not stated) in this test?
Reply text: inactive

Inquiry: So what was the verdict on N[C@H](C(=O)O)c1cc(O)cc(O)c1 in this test?
Reply text: inactive

Inquiry: So what was the verdict on CC(C)CC1NC(=O)NC1=O (configuration not stated) in this test?
Reply text: inactive

Inquiry: So what was the verdict on N#C/C(=C\c1ccc(O)c(O)c1)C(=O)c1ccc(O)c(O)c1 in this test?
Reply text: inactive

Inquiry: So what was the verdict on O=C1c2ccccc2C(=O)N1CNc1ccc(N2CCOCC2)cc1 in this test?
Reply text: inactive

Inquiry: So what was the verdict on CC(=O)Oc1ccc2c(c1OC(C)=O)OCC1(O)Cc3c(cc(OC(C)=O)c(OC(C)=O)c3OC(C)=O)C21 (configuration not stated) in this test?
Reply text: inactive

Inquiry: So what was the verdict on CCOC(=O)C1C(c2cccnc2)C(C(=O)OCC)C(O)(C(F)(F)F)NC1(O)C(F)(F)F (configuration not stated) in this test?
Reply text: inactive

Inquiry: So what was the verdict on COc1ccc(-c2cc(=O)c3c(O)cc(O[C@H]4O[C@H](CO[C@@H]5O[C@@H](C)[C@H](O)[C@@H](O)[C@H]5O)[C@@H](O)[C@H](O)[C@H]4O)cc3o2)cc1 in this test?
Reply text: inactive

Inquiry: So what was the verdict on COc1ccc2c(c1C(C)C)CCC1C(C)(C)C(=O)CCC21C (configuration not stated) in this test?
Reply text: inactive

Inquiry: So what was the verdict on COc1cc(C(O)CO)ccc1OS(=O)(=O)O (configuration not stated) in this test?
Reply text: inactive

Inquiry: So what was the verdict on Cc1ccc(/C=C2\CCc3ccccc3C2=O)o1 in this test?
Reply text: active

Inquiry: So what was the verdict on N#CC(C#N)=Cc1cc(O)c(O)c(O)c1 in this test?
Reply text: inactive

Inquiry: So what was the verdict on O=c1c(O)c(-c2cc(O)c(O)c(O)c2)oc2cc(O)cc(O)c12 in this test?
Reply text: inactive

Inquiry: So what was the verdict on Cc1cc(Br)c(NC(=O)C(Cl)(Cl)Cl)c(Br)c1 in this test?
Reply text: inactive

Inquiry: So what was the verdict on CC(C)C[C@H](N)CSSC[C@@H](N)CC(C)C in this test?
Reply text: inactive

Inquiry: So what was the verdict on CC(C)[C@@]1(NC(=O)[C@@H]2C[C@@H]3c4cccc5[nH]cc(c45)C[C@H]3N(C)C2)O[C@@]2(O)[C@@H]3CCCN3C(=O)[C@H](Cc3ccccc3)N2C1=O in this test?
Reply text: inactive

Inquiry: So what was the verdict on CN(C)C=Nc1nnc(SCc2ccc(C(=O)Oc3ccc(F)cc3F)cc2)s1 in this test?
Reply text: inactive

Inquiry: So what was the verdict on CCCC(C)(COC(N)=O)COC(=O)NC(C)C (configuration not stated) in this test?
Reply text: inactive

Inquiry: So what was the verdict on CN(C)C=Nc1nnc(Sc2nc3cc(Cl)ccc3s2)s1 in this test?
Reply text: active

Inquiry: So what was the verdict on CC(CC(O)C1OC1(C)C)[C@@H]1CCC2(C)C3=CCC4C(C)(C)C(=O)CCC4(C)C3CC[C@@]12C (some centres not stated) in this test?
Reply text: inactive

Inquiry: So what was the verdict on CSc1cccc(NC(=S)N=CN(C)C)c1 in this test?
Reply text: inactive

Inquiry: So what was the verdict on CCCCCCCCCCCCCCCC(=O)OC(CC(=O)O)C[N+](C)(C)C (configuration not stated) in this test?
Reply text: inactive

Inquiry: So what was the verdict on COc1cccc2c(C)cc(=O)[nH]c12 in this test?
Reply text: inactive

Inquiry: So what was the verdict on COc1cc(O)c2c(=O)c(O)c(-c3ccc(O)c(O)c3)oc2c1 in this test?
Reply text: inactive

Inquiry: So what was the verdict on Brc1ccc(-c2ccn[nH]2)s1 in this test?
Reply text: active
